Reported pIC50 values for the following molecules.
tested on: purified recombinant human PARP (Homo sapiens)
Sequence (P09874 whole entry): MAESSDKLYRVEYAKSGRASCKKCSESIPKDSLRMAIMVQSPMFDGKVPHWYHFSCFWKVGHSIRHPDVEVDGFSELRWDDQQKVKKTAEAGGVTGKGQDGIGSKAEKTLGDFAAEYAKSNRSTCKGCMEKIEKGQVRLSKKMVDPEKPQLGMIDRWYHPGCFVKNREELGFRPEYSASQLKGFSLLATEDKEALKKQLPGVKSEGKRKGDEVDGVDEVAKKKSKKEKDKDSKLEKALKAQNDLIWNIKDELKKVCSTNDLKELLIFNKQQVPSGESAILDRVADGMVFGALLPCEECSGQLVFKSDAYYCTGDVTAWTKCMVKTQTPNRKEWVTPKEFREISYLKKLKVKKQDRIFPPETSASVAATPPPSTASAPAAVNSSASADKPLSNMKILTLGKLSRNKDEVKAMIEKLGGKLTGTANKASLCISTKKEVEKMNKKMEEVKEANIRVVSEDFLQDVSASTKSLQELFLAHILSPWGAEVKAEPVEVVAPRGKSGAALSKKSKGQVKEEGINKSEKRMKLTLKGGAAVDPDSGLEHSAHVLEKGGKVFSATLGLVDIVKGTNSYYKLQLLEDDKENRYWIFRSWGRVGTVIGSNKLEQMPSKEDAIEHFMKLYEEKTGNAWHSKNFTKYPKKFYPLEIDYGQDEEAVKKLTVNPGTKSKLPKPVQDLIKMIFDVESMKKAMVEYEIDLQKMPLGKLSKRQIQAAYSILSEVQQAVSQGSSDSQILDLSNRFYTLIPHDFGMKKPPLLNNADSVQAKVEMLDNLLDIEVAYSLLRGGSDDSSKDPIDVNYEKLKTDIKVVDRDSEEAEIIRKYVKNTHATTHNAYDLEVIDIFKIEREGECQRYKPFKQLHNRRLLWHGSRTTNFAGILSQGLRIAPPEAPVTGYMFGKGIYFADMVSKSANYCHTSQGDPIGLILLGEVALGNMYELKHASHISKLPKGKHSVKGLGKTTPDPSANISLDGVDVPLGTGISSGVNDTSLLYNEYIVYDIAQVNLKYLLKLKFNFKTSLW
experimental details: PARP enzyme assay (IC50), [3H]NAD incorporation
stated conditions: approximate IC50 values; 25° C., 15 minutes
pIC50: −log10 of the molar value.

>  <molecule>
O=c1[nH]c2ccc(S(=O)(=O)N3CCCC(CO)C3)cc2c2ccccc12 (stereo not shown)

>  <tested on>
purified recombinant human PARP (Homo sapiens)

>  <pIC50>
6.79

$$$$
>  <molecule>
O=C(O)[C@@H]1CCCN1C(=O)c1ccc2c(c1)[nH]c(=O)c1cc(F)ccc12

>  <tested on>
purified recombinant human PARP (Homo sapiens)

>  <pIC50>
6.91

$$$$
>  <molecule>
Cc1cc2[nH]c(=O)c3ccccc3c2cc1NC(=O)CCl

>  <tested on>
purified recombinant human PARP (Homo sapiens)

>  <pIC50>
6.82

$$$$
>  <molecule>
Cc1cc2[nH]c(=O)c3ccccc3c2cc1NC(=O)CCc1ccccc1

>  <tested on>
purified recombinant human PARP (Homo sapiens)

>  <pIC50>
5.12

$$$$
>  <molecule>
O=C(c1ccc(F)cc1)C1CCN(S(=O)(=O)c2ccc3[nH]c(=O)c4ccccc4c3c2)CC1

>  <tested on>
purified recombinant human PARP (Homo sapiens)

>  <pIC50>
6.50

$$$$
>  <molecule>
O=c1[nH]c2ccc(S(=O)(=O)NCc3ccncc3)cc2c2ccccc12

>  <tested on>
purified recombinant human PARP (Homo sapiens)

>  <pIC50>
7.03

$$$$
>  <molecule>
CC(C)N(C(=O)c1ccc2c(c1)[nH]c(=O)c1ccccc12)C(C)C

>  <tested on>
purified recombinant human PARP (Homo sapiens)

>  <pIC50>
7.00

$$$$
>  <molecule>
CN1CCN(S(=O)(=O)c2ccc3c(c2)[nH]c(=O)c2cc(F)ccc23)CC1

>  <tested on>
purified recombinant human PARP (Homo sapiens)

>  <pIC50>
6.97

$$$$
>  <molecule>
Cc1ccc(S(=O)(=O)Nc2cc3c(cc2C)[nH]c(=O)c2ccccc23)cc1

>  <tested on>
purified recombinant human PARP (Homo sapiens)

>  <pIC50>
5.23

$$$$
>  <molecule>
CC(=O)NCCN1CCN(S(=O)(=O)c2ccc3[nH]c(=O)c4ccccc4c3c2)CC1

>  <tested on>
purified recombinant human PARP (Homo sapiens)

>  <pIC50>
6.85

$$$$
>  <molecule>
Cc1cc2[nH]c(=O)c3ccccc3c2cc1NC(=O)C(C)Br (stereo not shown)

>  <tested on>
purified recombinant human PARP (Homo sapiens)

>  <pIC50>
6.76

$$$$
>  <molecule>
O=C(O)[C@H]1CCCN1C(=O)c1ccc2c(c1)[nH]c(=O)c1ccccc12

>  <tested on>
purified recombinant human PARP (Homo sapiens)

>  <pIC50>
7.05

$$$$
>  <molecule>
NCCN1CCN(S(=O)(=O)c2ccc3[nH]c(=O)c4ccccc4c3c2)CC1

>  <tested on>
purified recombinant human PARP (Homo sapiens)

>  <pIC50>
7.00

$$$$
>  <molecule>
NCCCCC(NC(=O)c1ccc2c(c1)[nH]c(=O)c1ccccc12)C(=O)O (stereo not shown)

>  <tested on>
purified recombinant human PARP (Homo sapiens)

>  <pIC50>
6.47

$$$$
>  <molecule>
NCCCC[C@H](NC(=O)c1ccc2c(c1)[nH]c(=O)c1ccccc12)C(=O)O

>  <tested on>
purified recombinant human PARP (Homo sapiens)

>  <pIC50>
7.06

$$$$
>  <molecule>
COC(=O)[C@@H]1CCCN1C(=O)c1ccc2c(c1)[nH]c(=O)c1ccccc12

>  <tested on>
purified recombinant human PARP (Homo sapiens)

>  <pIC50>
6.93

$$$$
